Experiment: Plasma pharmacokinetics in male CD-1 mice (1 mg/kg i.v. or 3 mg/kg p.o.)
Conditions: CD-1, mouse, in vivo
VALUE TYPE: bioavailability (%)
Give bare numbers, in %.

Previously resolved entries follow.
COMPOUND	UNIT OF MEASUREMENT	bioavailability
CCn1c(=S)c2c(nc(/C=C/c3ccc(OC)c(OC)c3)n2C)n(CC)c1=O	%	21.5
CCn1c(=O)c2c(nc(/C=C/c3ccc(OC(F)F)c(OC(F)F)c3)n2C)n(CC)c1=O	%	76

Now take the following compound into account.
(Q) Give me measured bioavailability, please, for this compound: CCn1c(=O)c2c(nc(/C=C/c3ccc(OC)c(OC)c3)n2C)n(CC)c1=O [Istradefylline, reference compound]
(A) 30.9

----------
Assay: Brain pharmacokinetics and brain/plasma ratio in male CD-1 mice (1 mg/kg i.v.)
Assay type: in vivo
Conditions: male, CD-1, mouse, brain and plasma, iv, 1 mg/kg, 1 mg/kg bolus i.v., 5 min; read-out: Brain/plasma concentration ratio, Mean
VALUE TYPE: Kp at 5 min
One number for each entry.

COMPOUND	NUMERIC VALUE
CCn1c(=O)c2c(nc(/C=C/c3ccc(OC)c(OC)c3)n2C)n(CC)c1=O [Istradefylline, reference compound]	0.828

# evaluate next
(Q) Note Kp at 5 min for the compound shown: `CCn1c(=O)c2c(nc(/C=C/c3ccc(OC(F)F)c(OC(F)F)c3)n2C)n(CC)c1=O`
(A) 0.792

----------
Experiment: Brain pharmacokinetics and brain/plasma ratio in male CD-1 mice (1 mg/kg i.v.)
Assay type: in vivo
Settings: male, CD-1, mouse, brain and plasma, iv, 1 mg/kg, 1 mg/kg bolus i.v., 5 min, individual animals 1-3; read-out: Brain/plasma concentration ratio
Task for the reader: assign each of the following compounds its reported Kp at 5 min.
One number for each entry.

COMPOUND	NUMERIC VALUE
CCn1c(=O)c2c(nc(/C=C/c3ccc(OC)c(OC)c3)n2C)n(CC)c1=O [Istradefylline, reference compound]	0.726

Here's the next entry for you.
(Q) Tell us which Kp at 5 min value is on record for CCn1c(=O)c2c(nc(/C=C/c3ccc(OC(F)F)c(OC(F)F)c3)n2C)n(CC)c1=O [Formula I]
(A) 0.757

----------
Field: concentration at 8 h. Provide a value for each of the molecules that follow.
Experiment: Brain pharmacokinetics and brain/plasma ratio in male CD-1 mice (1 mg/kg i.v.)
Assay type: in vivo
Conditions: male, CD-1, mouse, brain, intravenous, 1 mg/kg, 1 mg/kg bolus i.v., 8 h; read-out: Brain concentration, Mean
One number for each entry, in ng/g.

Answered cases to consult:
MOLECULE	concentration at 8 h [ng/g]
CCn1c(=O)c2c(nc(/C=C/c3ccc(OC(F)F)c(OC(F)F)c3)n2C)n(CC)c1=O [Formula I]	114
CCn1c(=S)c2c(nc(/C=C/c3ccc(OC)c(OC)c3)n2C)n(CC)c1=O [Formula III]	49.4

(Q) Name the recorded concentration at 8 h of the molecule listed here: CCn1c(=O)c2c(nc(/C=C/c3ccc(OC)c(OC)c3)n2C)n(CC)c1=O [Istradefylline, reference compound]
(A) 24.2

----------
Test: Brain pharmacokinetics and brain/plasma ratio in male CD-1 mice (1 mg/kg i.v.)
Format: in vivo
Conditions: male, CD-1, mouse, iv; brain, i.v. 1 mg/kg; read-out: Apparent t1/2 (converted)
Protocol: Male CD-1 mice were given either bolus 1 mg/kg i.v. or 3 mg/kg p.o. of the indicated compounds and plasma or brain concentrations were measured. […]
Assignment: determine reported half-life for the given compounds.
Answers are plain numbers, in h.

COMPOUND	VALUE TYPE	NUMERIC VALUE
CCn1c(=O)c2c(nc(/C=C/c3ccc(OC)c(OC)c3)n2C)n(CC)c1=O [Istradefylline, reference compound]	half-life	2.1
CCn1c(=S)c2c(nc(/C=C/c3ccc(OC)c(OC)c3)n2C)n(CC)c1=O	half-life	2.83

Next:
(Q) Tell us which half-life value is on record for `CCn1c(=O)c2c(nc(/C=C/c3ccc(OC(F)F)c(OC(F)F)c3)n2C)n(CC)c1=O`
(A) 8.27

Data credit: patent US12570656B2
